The origin of these recorded values is paper PMC12703733.

Assay type: cell-based, human
Conditions: human, Cell viability (%)
Bridge positions count the residues as written; N and C are the ends. Square brackets hold non-standard residues; d marks the D form. Peptide text beside a SMILES is read from it. * marks the point of attachment. Butanoyl(4-guanidino) = N=C(N)NCCCC(=O)*; X1 = N=C(N)N[C@@H](Cc1ccccc1)C(=O)*
Recorded Metric: viability at 2 h, 50 µM (%)
Answers are plain numbers, in %.

Some molecules with known viability at 2 h, 50 µM results, for comparison:
| Molecule | Val |
| --- | --- |
| CC[C@H](C)[C@H](NC(=O)[C@H](CCCNC(=N)N)NC(=O)[C@@H]1CCCNC(=N)NCCC[C@H](NC(=O)[C@H](Cc2ccccc2)NC(=O)[C@H](Cc2c[nH]c3ccccc23)NC(=O)[C@@H]2CCCN2C(=O)[C@@H](NC(=O)[C@@H](N)Cc2ccccc2)C(C)C)C(=O)N[C@@H](CCCCN)C(=O)N[C@@H](Cc2ccccc2)C(=O)N[C@H](CC(C)C)C(=O)N1)C(=O)N[C@@H](CC(C)C)C(N)=O [Peptide 13, FVPWF{OrnKFlOrn}RIL] | 7 |
| CC[C@H](C)[C@H](NC(=O)[C@H](CCCNC(=N)N)NC(=O)[C@H]1CCC(=O)NCCCC[C@H](NC(=O)[C@H](Cc2ccccc2)NC(=O)[C@H](Cc2c[nH]c3ccccc23)NC(=O)[C@@H]2CCCN2C(=O)[C@@H](NC(=O)[C@H](Cc2ccccc2)NC(=O)CCCNC(=N)N)C(C)C)C(=O)N[C@@H](CCCCN)C(=O)N[C@@H](Cc2ccccc2)C(=O)N[C@H](CC(C)C)C(=O)N1)C(=O)N[C@@H](CC(C)C)C(N)=O [Peptide 5, guanidino-GABA-FVPWF[KKFle]RIL] ({Butanoyl(4-guanidino)}-FVPWFKKF[dL][dE]RIL-NH2; lactam 6-10) | 18 |
| CC[C@H](C)[C@H](NC(=O)[C@H](CCCNC(=N)N)NC(=O)[C@H]1CCC(=O)NCCCC[C@H](NC(=O)[C@H](Cc2ccccc2)NC(=O)[C@H](Cc2c[nH]c3ccccc23)NC(=O)[C@@H]2CCCN2C(=O)[C@@H](NC(=O)[C@@H](N)Cc2ccccc2)C(C)C)C(=O)N[C@@H](CCCNC(=N)N)C(=O)N[C@@H](Cc2ccccc2)C(=O)N[C@H](CC(C)C)C(=O)N1)C(=O)N[C@@H](CC(C)C)C(N)=O [Peptide 9, FVPWF[KRFle]RIL] (H-FVPWFKRF[dL][dE]RIL-NH2; lactam 6-10) | 74 |

Task: Need viability at 2 h, 50 µM of CC[C@H](C)[C@H](NC(=O)[C@H](CCCNC(=N)N)NC(=O)[C@H]1CCC(=O)NCCCC[C@H](NC(=O)[C@H](Cc2ccccc2)NC(=O)[C@H](Cc2c[nH]c3ccccc23)NC(=O)[C@@H]2CCCN2C(=O)[C@@H](NC(=O)[C@H](Cc2ccccc2)NC(=N)N)C(C)C)C(=O)N[C@@H](CCCCN)C(=O)N[C@@H](Cc2ccccc2)C(=O)N[C@H](CC(C)C)C(=O)N1)C(=O)N[C@@H](CC(C)C)C(N)=O [Peptide 3, guanidino-FVPWF[KKFle]RIL] (X1-VPWFKKF[dL][dE]RIL-NH2; lactam 5-9) , thanks.
Output: 52
